Target: FAAH (Mus musculus)
Construct: mouse brain membrane fraction or cell lysates for mouse assays; from tissue
Sequence (O08914 whole entry): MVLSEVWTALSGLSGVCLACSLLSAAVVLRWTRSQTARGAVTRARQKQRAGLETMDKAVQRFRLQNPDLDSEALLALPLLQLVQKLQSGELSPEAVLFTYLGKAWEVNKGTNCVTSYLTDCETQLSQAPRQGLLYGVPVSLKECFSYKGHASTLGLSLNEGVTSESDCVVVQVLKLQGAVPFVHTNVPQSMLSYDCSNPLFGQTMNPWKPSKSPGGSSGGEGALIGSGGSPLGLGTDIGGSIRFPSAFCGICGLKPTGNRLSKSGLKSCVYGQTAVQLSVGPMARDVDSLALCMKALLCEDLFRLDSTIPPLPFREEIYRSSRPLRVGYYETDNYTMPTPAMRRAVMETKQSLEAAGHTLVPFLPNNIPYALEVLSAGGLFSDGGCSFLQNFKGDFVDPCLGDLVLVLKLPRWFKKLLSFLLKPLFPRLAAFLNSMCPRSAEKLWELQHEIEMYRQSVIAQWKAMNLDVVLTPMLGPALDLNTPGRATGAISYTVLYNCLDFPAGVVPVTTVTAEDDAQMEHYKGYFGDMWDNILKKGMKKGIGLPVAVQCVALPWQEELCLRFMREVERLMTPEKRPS
Experiment: In vitro competitive activity-based protein profiling, mouse FAAH
Type: biochemical
pIC50: −log10 of the molar value.
VALUE_TYPE: pIC50

Guide cases for pIC50, answers given:
O=C(N1CC2CN(Cc3cccc(F)c3)CC2C1)n1cc(C(F)(F)F)cn1 (stereo not shown) [Example 150] | ≥ 7.00
Cc1ccc(CN2CC3CN(C(=O)n4cc(C(F)(F)F)cn4)CC3C2)cc1 (stereo not shown) [Example 147] | ≥ 7.00
O=C(N1CC2CN(Cc3ccccc3Cl)CC2C1)n1cc(C(F)(F)F)cn1 (stereo not shown) [Example 151] | ≥ 7.00

// moving on: another record for pIC50
input: Please look up its pIC50: CC(=O)N1CCN(c2cc(C(C)C)ccc2CN2CC3CN(C(=O)n4cc(Cl)cn4)CC3C2)CC1 (stereo not shown) [Example 109]
output: 5.00 to 6.00

Data provenance is patent US10385057B2.
